experiment: Diarrhoeic activity; design: species or system mice; settings: mouse, in vivo; oral route; dose which causes diarrhoea in 50% of the animals; read-out: DE50 (the source's name)
Label key: 1.0 means ED50 under 6 mg/kg; 0.0 means ED50 of 6 mg/kg or more.

Exercise: Lab note: confirm whether the reported ED50 for this compound is below 6 mg/kg, equality not counting. compound: "COC(=O)C1=CCCN(C)C1"
Key: 0.0

Exercise: Lab note: confirm whether the reported ED50 for this compound is below 6 mg/kg, equality not counting. compound: "CON=CC1=CCCN(OC(=O)Nc2ccc(Cl)cc2)C1"
Key: 0.0

Exercise: Lab note: confirm whether the reported ED50 for this compound is below 6 mg/kg, equality not counting. compound: "CON=CC1=CCCN(OC(C)=O)C1"
Key: 1.0

Exercise: Lab note: confirm whether the reported ED50 for this compound is below 6 mg/kg, equality not counting. compound: "CON=CC1=CCCN(OC(=O)Nc2ccccc2)C1"
Key: 1.0

----------
test system: ileum isolated from guinea-pig; test: Test of ileum isolated from guinea-pig, agonist (contracting) activity; conditions: Cavia porcellus; negative logarithm of the dose which produces 50% of the maximum effect; read-out: pD2 (converted)
Assay endpoint: log10(EC50) (log10 of the value in µM)
The common logarithm of EC50 in µM is what is listed.

Exercise: Complete the entry with log10(EC50) for "CCOC(=O)ON1CCC=C(C=NOC)C1"
Key: 1.06

Exercise: Complete the entry with log10(EC50) for "CON=CC1=CCCN(O)C1"
Key: 0.62

Exercise: Complete the entry with log10(EC50) for "C#CCON=CC1=CCCN(O)C1"
Key: 0.76

Exercise: Complete the entry with log10(EC50) for "COC(=O)C1=CCCN(C)C1"
Key: -0.48

Exercise: Complete the entry with log10(EC50) for "CON=CC1=CCCN(OC(C)=O)C1"
Key: 1.10

----------
System: male mice (CD1 Charles RAivers)
Assay: Hypothermic activity
Assay type: in vivo
Conditions: Mus musculus; O.R. (oral route); read-out: Effective dose (-1° C.)
Protocol: The test is carried out on male mice (CD1 Charles RAivers) weighing 25-30 g, having fasted for 6 hours. The temperature of the body is noted by means of a thermocouple inserted about 1.5 cm in the rectum and connected to an electric temperature recorder. […] The degree of hypothermia is evaluated as the difference between the treated animals and the controls, and the dose necessary to reduce the body temperature by 1° C. is noted.
So I've got a bunch of molecules here, and I need their ED (-1 C) values.
Report the figure in mg/kg without appending any unit label.

Exercise: Complete the entry with ED (-1 C) for "CON=CC1=CCCN(OC(=O)Nc2ccccc2)C1"
Key: 0.74

Exercise: Complete the entry with ED (-1 C) for "CON=CC1=CCCN(OC(C)=O)C1"
Key: 0.22

Exercise: Complete the entry with ED (-1 C) for "CON=CC1=CCCN(OC(=O)Nc2ccc(C(C)C)cc2)C1"
Key: 1.9

Exercise: Complete the entry with ED (-1 C) for "CON=CC1=CCCN(OC(=O)Nc2ccc(OC)cc2)C1"
Key: 0.88

Exercise: Complete the entry with ED (-1 C) for COC(=O)C1=CCCN(C)C1 [Arecoline HBr, reference compound]
Key: 194

Exercise: Complete the entry with ED (-1 C) for "CCOC(=O)ON1CCC=C(C=NOC)C1"
Key: 0.26

Exercise: Complete the entry with ED (-1 C) for "CON=CC1=CCCN(OC(=O)c2ccccc2)C1"
Key: 0.42

Exercise: Complete the entry with ED (-1 C) for "CON=CC1=CCCN(O)C1"
Key: 0.19

Exercise: Complete the entry with ED (-1 C) for "CCCNC(=O)ON1CCC=C(C=NOC)C1"
Key: 1.4

Exercise: Complete the entry with ED (-1 C) for "CON=CC1=CCCN(OC(=O)Nc2ccc(Cl)cc2)C1"
Key: 1.8

Exercise: Complete the entry with ED (-1 C) for "C#CCON=CC1=CCCN(O)C1"
Key: 0.48

----------
experiment: Acute toxicity, oral; set-up: species or system mice; conditions: mouse, in vivo, mortality during 7 days
Label key: yes (1) means LD50 at 168 h under 100 mg/kg; no (0) means LD50 at 168 h of 100 mg/kg or more.

Exercise: Lab note: confirm whether the reported LD50 at 168 h for this compound is below 100 mg/kg, equality not counting. compound: CON=CC1=CCCN(OC(=O)Nc2ccc(C(C)C)cc2)C1 [Example 15]
Key: no (0)

Exercise: Lab note: confirm whether the reported LD50 at 168 h for this compound is below 100 mg/kg, equality not counting. compound: CON=CC1=CCCN(OC(=O)Nc2ccc(OC)cc2)C1 [Example 16]
Key: yes (1)

Exercise: Lab note: confirm whether the reported LD50 at 168 h for this compound is below 100 mg/kg, equality not counting. compound: C#CCON=CC1=CCCN(O)C1 [Example 4]
Key: yes (1)

Exercise: Lab note: confirm whether the reported LD50 at 168 h for this compound is below 100 mg/kg, equality not counting. compound: CCCNC(=O)ON1CCC=C(C=NOC)C1 [Example 10]
Key: no (0)

Exercise: Lab note: confirm whether the reported LD50 at 168 h for this compound is below 100 mg/kg, equality not counting. compound: CCOC(=O)ON1CCC=C(C=NOC)C1 [Example 6]
Key: no (0)

Exercise: Lab note: confirm whether the reported LD50 at 168 h for this compound is below 100 mg/kg, equality not counting. compound: CON=CC1=CCCN(OC(=O)Nc2ccc(Cl)cc2)C1 [Example 14]
Key: no (0)

Exercise: Lab note: confirm whether the reported LD50 at 168 h for this compound is below 100 mg/kg, equality not counting. compound: CON=CC1=CCCN(OC(=O)c2ccccc2)C1 [Example 7]
Key: yes (1)

Exercise: Lab note: confirm whether the reported LD50 at 168 h for this compound is below 100 mg/kg, equality not counting. compound: CON=CC1=CCCN(O)C1 [Example 1]
Key: yes (1)

Exercise: Lab note: confirm whether the reported LD50 at 168 h for this compound is below 100 mg/kg, equality not counting. compound: CON=CC1=CCCN(OC(=O)Nc2ccccc2)C1 [Example 13]
Key: no (0)

----------
Test: Diarrhoeic activity
Set-up: species or system mice
Settings: mouse, in vivo; oral route; dose which causes diarrhoea in 50% of the animals; read-out: DE50 (the source's name)
Description: The test is carried out on male mice (CD1 Charles Rivers) weighing […], after fasting for 6 hours. The product dissolved at 5% in methocel is administered by oral route by means of an oesophage probe. Control animals receive only the excipient. […] The consistency of the feces is evaluated according to the method of Randall and Baruth (Arch. Int. Pharmacodyn. 220, 94, 1976) according to the following scale of values. […]
So I've got a bunch of compounds here, and I need their ED50 values.
Answer format: number, then unit.

Exercise: Complete the entry with ED50 for CCCNC(=O)ON1CCC=C(C=NOC)C1 [Example 10]
Key: 20 mg/kg

Exercise: Complete the entry with ED50 for CON=CC1=CCCN(O)C1 [Example 1]
Key: 0.5 mg/kg

Exercise: Complete the entry with ED50 for CON=CC1=CCCN(OC(=O)c2ccccc2)C1 [Example 7]
Key: 1.5 mg/kg

Exercise: Complete the entry with ED50 for CCOC(=O)ON1CCC=C(C=NOC)C1 [Example 6]
Key: 0.6 mg/kg

Exercise: Complete the entry with ED50 for CON=CC1=CCCN(OC(=O)Nc2ccc(C(C)C)cc2)C1 [Example 15]
Key: 20 mg/kg

Exercise: Complete the entry with ED50 for C#CCON=CC1=CCCN(O)C1 [Example 4]
Key: 0.9 mg/kg

Values from patent US4902699A
